The reported measurements were obtained from ChEMBL document CHEMBL1158168.

- Test system: Rattus norvegicus
- Experiment description: Antiinflammatory activity in Wistar albino rat assessed as inhibition of carrageenan-induced paw edema administered at equimolar oral dose relative to 10 mg/kg fluribiprofen measured 4 hrs after carrageenan challenge
- Format: functional
Documented inhibition in vivo across a set of compounds

Mol	Study system	inhibition in vivo
CCCCNc1nn2c(COc3ccc(-c4ccccc4)cc3)nnc2s1	Rattus norvegicus	65.9%
Fc1ccc(Nc2nn3c(COc4ccc(-c5ccccc5)cc4)nnc3s2)cc1	Rattus norvegicus	78.2%
Clc1ccc(OCc2nn3c(COc4ccc(-c5ccccc5)cc4)nnc3s2)c(Cl)c1	Rattus norvegicus	50.8%

---

- System: Staphylococcus aureus
- Experiment description: Antibacterial activity against Staphylococcus aureus ATCC 19433 by cup plate method
- Type: functional
Property: MIC; scope: individual compounds

Compound	Study system	Reading unit	MIC
Clc1ccc(OCc2nn3c(COc4ccc(-c5ccccc5)cc4)nnc3s2)c(Cl)c1	Staphylococcus aureus	µg/mL	25
Clc1ccc(-c2nn3c(COc4ccc(-c5ccccc5)cc4)nnc3s2)cc1	Staphylococcus aureus	µg/mL	100
Cc1ccc(Nc2nn3c(C(C)c4ccc(CC(C)C)cc4)nnc3s2)c(C)c1 (stereo not drawn)	Staphylococcus aureus	µg/mL	200
